# tested-on: mineralocorticoid receptors (Homo sapiens)
# Sequence (P08235 726-964 limits assumed): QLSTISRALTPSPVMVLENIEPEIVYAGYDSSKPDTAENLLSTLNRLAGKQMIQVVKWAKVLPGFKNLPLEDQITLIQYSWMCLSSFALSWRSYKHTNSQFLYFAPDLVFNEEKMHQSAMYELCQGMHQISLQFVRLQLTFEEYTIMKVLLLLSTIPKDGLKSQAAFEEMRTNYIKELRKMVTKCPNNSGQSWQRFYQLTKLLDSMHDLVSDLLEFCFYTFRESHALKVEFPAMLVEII
# protocol-notes: Assay for in-vitro antagonistic activity against mineralocorticoid receptors (Gal4-MR LBD luciferase reporter in HEK293T cells, 1 nM aldosterone)
assay-metric: pIC50
pIC50 is a log-scale quantity: -log10 of the concentration expressed in molar.

Worked examples follow.
molecule: COc1cc(C#N)ccc1C1C(C(N)=O)=C(C)Nc2c(C)cnc(OCCSC)c21 (stereo not shown) [Compound 1]
tested-on: mineralocorticoid receptors (Homo sapiens)
assay-metric: pIC50
endpoint-result: 7.80

molecule: CCOc1nc(Cl)cc2c1C(c1ccc(C#N)cc1OC)C(C(N)=O)=C(C)N2 (stereo not shown) [Compound 5]
tested-on: mineralocorticoid receptors (Homo sapiens)
assay-metric: pIC50
endpoint-result: 8.30

Lab note: need pIC50 for CCOc1ncc(C)c2c1C(c1cc(C)c(C#N)cc1OC)C(C(N)=O)=C(C)N2 (stereo not shown) [Compound 6] on mineralocorticoid receptors (Homo sapiens), anyone have it?
8.00

Checklist item: pIC50 tested on mineralocorticoid receptors (Homo sapiens), entry [2H]C([2H])([2H])C([2H])([2H])Oc1ncc(C)c2c1C(c1ccc(C#N)cc1OC)C(C(N)=O)=C(C)N2 (stereo not shown) [Compound 3] , value?
7.77

Entry CCOc1ncc(Cl)c2c1C(c1ccc(C#N)cc1OC)C(C(N)=O)=C(C)N2 (stereo not shown) [Compound 4] , system mineralocorticoid receptors (Homo sapiens): what pIC50 was measured?
7.96

Lab request: please report pIC50 under test system mineralocorticoid receptors (Homo sapiens) for CCOc1ncc(C)c2c1[C@H](c1ccc(C#N)cc1OC)C(C(N)=O)=C(C)N2 [Finerenone]
7.89

Can you look up pIC50 on mineralocorticoid receptors (Homo sapiens) for [2H]C([2H])([2H])Oc1cc(C#N)ccc1C1C(C(N)=O)=C(C)Nc2c(C)cnc(OCC)c21 (stereo not shown) [Compound 2] ?
8.15
